# Target or test system: full-length human PKCι (Homo sapiens)
# Construct: Recombinant, full-length human PKCι expressed in Sf21 insect cells is also commercially available
# Sequence (P41743 whole entry): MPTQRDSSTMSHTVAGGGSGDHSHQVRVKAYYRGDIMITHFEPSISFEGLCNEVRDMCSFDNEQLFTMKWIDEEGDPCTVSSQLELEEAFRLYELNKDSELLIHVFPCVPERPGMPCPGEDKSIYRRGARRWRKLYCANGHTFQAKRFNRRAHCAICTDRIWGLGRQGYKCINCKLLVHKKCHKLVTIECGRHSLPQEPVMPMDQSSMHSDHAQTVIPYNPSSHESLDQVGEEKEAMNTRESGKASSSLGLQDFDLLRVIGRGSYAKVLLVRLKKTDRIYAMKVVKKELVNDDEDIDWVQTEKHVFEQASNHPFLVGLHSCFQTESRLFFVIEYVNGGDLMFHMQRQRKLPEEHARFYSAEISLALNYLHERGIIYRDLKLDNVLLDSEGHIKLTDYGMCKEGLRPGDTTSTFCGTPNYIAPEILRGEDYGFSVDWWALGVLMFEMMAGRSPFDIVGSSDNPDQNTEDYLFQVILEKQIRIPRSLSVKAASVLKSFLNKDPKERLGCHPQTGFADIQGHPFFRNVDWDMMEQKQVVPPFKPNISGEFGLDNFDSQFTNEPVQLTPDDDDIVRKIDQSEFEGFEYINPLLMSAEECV
# Assay text: PKCι IC50 IMAP assay, full-length PKCι at 150 μM ATP
# Details: read-out: IC50 in IMAP assay against full length PKCi at 150 μM ATP
Each entry below lists one item and its recorded IC50 value.

// worked examples, IC50 included
COc1cncc2nc(-c3ccnc(Nc4ccc(F)c(F)c4F)c3)nc(N3CCNCC3)c12
100 to 1000 nM
FC(F)c1cc2c(-c3nc(N4CCNCC4)c4c(C5CC5)cncc4n3)ccnc2[nH]1
< 100 nM
OC[C@H](O)CN1CCN(c2nc(-c3ccnc(Nc4ccccc4)c3)nc3cncc(C4CC4)c23)CC1
100 to 1000 nM

For c1cc(-c2nc(N3CCNCC3)c3c(C4CCC4)cncc3n2)c2c3c([nH]c2n1)CCCC3 , write its IC50. 100 to 1000 nM

For COc1cccc(CC(=O)Nc2cc(-c3nc(N[C@@H]4CCNC4)c4ccncc4n3)ccn2)c1 , write its IC50. < 100 nM

For c1ccc(-c2cccc(Nc3cc(-c4nc(N5CCNCC5)c5c(C6CC6)cncc5n4)ccn3)c2)cc1 , write its IC50. < 100 nM

For Fc1ccc(Cl)nc1Nc1cc(-c2nc(N3CCNCC3)c3c(C4CC4)cncc3n2)ccn1 , write its IC50. < 100 nM

For c1ccn2nc(Nc3cc(-c4nc(N5CCNCC5)c5c(C6CCC6)cncc5n4)ccn3)nc2c1 , write its IC50. < 100 nM
